- test: Half life in Han-Wistar rat at 1 mg/kg, iv by LC-MS/MS analysis
- Format: ADME, organism-based
- test parameters: in vivo
For each record, write down the corresponding log10 half-life.
Log scale reminder: half-life in h, then log10 taken.

Observe how each entry below is paired with its result.
{"chemical smiles": "Cc1ccc([C@@H](C)Oc2cc3onc(CCC(=O)O)c3cc2Cl)nc1", "assay readout": "log10 half-life", "readout value": 0.56}
{"chemical smiles": "O=C(O)CCn1c(=O)oc2cc(OCC3CC3)c(Cl)cc21", "assay readout": "log10 half-life", "readout value": -0.17}
{"chemical smiles": "C[C@@H](Oc1cc2onc(CCC(=O)O)c2cc1Cl)c1ccc(Cl)cn1", "assay readout": "log10 half-life", "readout value": 0.94}
{"chemical smiles": "Cc1ccc([C@@H](C)Oc2cc3onc(CCC(=O)O)c3cc2Cl)nn1", "assay readout": "log10 half-life", "readout value": 0.18}
{"chemical smiles": "O=C(O)CCn1c(=O)oc2cc(Cl)c(Cl)cc21", "assay readout": "log10 half-life", "readout value": 0.63}

Give me log10 half-life for each of these compounds, listed below.
1. O=C(O)CCn1c(=O)oc2cc(OC3CC3)c(Cl)cc21
2. C[C@@H](Oc1cc2onc(CCC(=O)O)c2cc1Cl)c1ccccn1
3. CCOc1cc2oc(=O)n(CCC(=O)O)c2cc1Cl
4. C[C@@H](Oc1cc2oc(=O)n(CCC(=O)O)c2cc1Cl)c1ccccn1
5. Cc1cc2oc(=O)n(CCC(=O)O)c2cc1Cl

Found:
1: -0.41; 2: 0.82; 3: -0.37; 4: 0.75; 5: 0.57

The reported numbers originate from ChEMBL document CHEMBL4049435.
